As an illustration, consider measured IC50 for compounds on PI3Kβ (Homo sapiens, UniProt P42338).
Sequence (P42338 with tags, fused parts or gaps): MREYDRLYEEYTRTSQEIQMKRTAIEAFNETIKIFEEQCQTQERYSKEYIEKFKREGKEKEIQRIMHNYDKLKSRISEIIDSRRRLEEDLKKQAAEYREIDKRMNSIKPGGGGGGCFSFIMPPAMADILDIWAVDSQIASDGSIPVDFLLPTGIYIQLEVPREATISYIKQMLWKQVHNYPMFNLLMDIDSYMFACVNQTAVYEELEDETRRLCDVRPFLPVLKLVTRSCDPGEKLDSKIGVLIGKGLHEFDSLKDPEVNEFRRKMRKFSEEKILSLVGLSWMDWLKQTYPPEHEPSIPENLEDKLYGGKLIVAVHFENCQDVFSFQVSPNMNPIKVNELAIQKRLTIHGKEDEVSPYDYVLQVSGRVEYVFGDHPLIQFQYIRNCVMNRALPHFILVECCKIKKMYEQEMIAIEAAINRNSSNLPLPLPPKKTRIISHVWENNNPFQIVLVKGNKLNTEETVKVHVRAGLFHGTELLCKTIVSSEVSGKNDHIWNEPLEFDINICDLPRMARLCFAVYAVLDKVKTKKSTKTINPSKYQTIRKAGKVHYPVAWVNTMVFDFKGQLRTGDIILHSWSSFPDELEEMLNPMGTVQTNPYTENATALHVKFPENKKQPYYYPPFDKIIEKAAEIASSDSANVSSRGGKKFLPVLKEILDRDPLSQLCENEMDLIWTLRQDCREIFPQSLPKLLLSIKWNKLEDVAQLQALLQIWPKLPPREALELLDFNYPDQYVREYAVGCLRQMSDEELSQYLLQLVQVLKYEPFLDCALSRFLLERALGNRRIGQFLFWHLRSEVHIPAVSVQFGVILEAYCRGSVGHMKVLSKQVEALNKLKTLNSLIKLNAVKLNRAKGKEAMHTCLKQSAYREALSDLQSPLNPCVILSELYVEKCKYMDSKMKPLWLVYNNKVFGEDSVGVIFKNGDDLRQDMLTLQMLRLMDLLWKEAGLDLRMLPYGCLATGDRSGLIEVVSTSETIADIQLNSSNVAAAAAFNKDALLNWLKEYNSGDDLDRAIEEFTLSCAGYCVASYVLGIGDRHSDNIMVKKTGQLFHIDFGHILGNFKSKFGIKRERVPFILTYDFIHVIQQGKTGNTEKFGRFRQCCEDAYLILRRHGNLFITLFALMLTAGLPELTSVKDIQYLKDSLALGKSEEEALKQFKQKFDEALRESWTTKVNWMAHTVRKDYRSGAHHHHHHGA
TEST READOUT: IC50 (nM)

                                    compound  test_readout  observed_result
 0  CCN(CC)c1ncc2c(n1)-c1sc(NC(=O)N3CCC[C@H]3C(N)=O)nc1CC2 [Example 12]          IC50              516
 1  C[C@@H]1CCN(C(=O)Nc2nc3c(s2)-c2cc(C(C)(C)C(F)(F)F)ncc2OC3)[C@@H]1C(N)=O [Example 48]          IC50              920
 2  CCN(CC)c1ncc2c(n1)-c1sc(NC(=O)N3CCC[C@@]3(COC)C(N)=O)nc1CC2 [Example 5]          IC50               47
 3  CC(C)(C)c1ncc2c(n1)-c1sc(NC(=O)N3CCC[C@@]3(CO)C(N)=O)nc1CC2 [Example 9]          IC50               87
 4  CC(C)(CF)c1nc2c(s1)CCc1nc(NC(=O)N3CCC[C@H]3C(N)=O)sc1-2 [Example 32]          IC50             1090
 5  CCN(CC)c1ncc2c(n1)-c1sc(NC(=O)N3C[C@@H](O)C[C@H]3C(N)=O)nc1CC2 [Example 26]          IC50              328
 6  CN(Cc1cccc(F)c1)C[C@@]1(C(N)=O)CCCN1C(=O)Nc1nc2c(s1)-c1nc(C(C)(C)C)ncc1CC2 [Example 10]          IC50              449
 7  CCN(CC)c1ncc2c(n1)-c1sc(NC(=O)N3C[C@@H](F)C[C@H]3C(N)=O)nc1CC2 [Example 17]          IC50              389
 8  COC[C@@H]1CCN(C(=O)Nc2nc3c(s2)-c2nc(C(C)(C)C(F)(F)F)ncc2CC3)[C@@H]1C(N)=O [Example 45]          IC50               61
 9  CCN(CC)c1ncc2c(n1)-c1sc(NC(=O)N3CC[C@H]3C(N)=O)nc1CC2 [Example 13]          IC50              277
10  CCN(CC)c1ncc2c(n1)-c1sc(NC(=O)N3CCC[C@@]3(CO)C(N)=O)nc1CC2 [Example 8]          IC50              276
11  CCN(CC)c1ncc2c(n1)-c1sc(NC(=O)N3CC[C@H](C)[C@H]3C(N)=O)nc1CC2 [Example 2]          IC50              332
12  CC(C)(C)c1ncc2c(n1)-c1sc(NC(=O)N3CC[C@H]3C(N)=O)nc1CC2 [Example 25]          IC50              346
13  CN(C)[C@@H]1C[C@@H](C(N)=O)N(C(=O)Nc2nc3c(s2)-c2nc(C(C)(C)C)sc2CC3)C1 [Example 31]          IC50             5820
14  CC(C)(C)c1ncc2c(n1)-c1sc(NC(=O)N3CC[C@@H](O)[C@H]3C(N)=O)nc1CC2 [Example 38]          IC50              866
